Reference source: paper PMC6100468

Reported ΔTm values for the following molecules.
Test system: F21T (DNA, G4) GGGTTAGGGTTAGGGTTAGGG
assay_explanation: FRET melting
experimental_conditions: 60 mM K+; 0.2 μM DNA, 1.0 μM compound (methods text: 2 μM, 100 mM LiCl); cacodylate pH 7.4

{"columns": ["structure_smiles_string", "ΔTm"],
 "data": [
  ["COc1cc2c(cc1OC)-c1cc3ccc(OC)c(OCC(=O)N[C@@H](CCCCN)C(=O)N[C@@H](Cc4ccccc4)C(=O)N[C@@H](CCCNC(=N)N)C(N)=O)c3c[n+]1CC2", "0.0 ± 1.2 °C"],
  ["COc1cc2c(cc1OC)-c1cc3ccc(OC)c(OCC(=O)N[C@@H](CCCNC(=N)N)C(=O)N[C@@H](CCCNC(=N)N)C(N)=O)c3c[n+]1CC2", "10.6 ± 0.2 °C"],
  ["COc1cc2c(cc1OC)-c1cc3ccc(OC)c(OCC(=O)N[C@@H](Cc4ccccc4)C(=O)N[C@@H](CCCNC(=N)N)C(N)=O)c3c[n+]1CC2", "11.0 ± 0.1 °C"]
]}

Could you now consider this next molecule?
## Input Need ΔTm, item `COc1cc2c(cc1OC)-c1cc3ccc(OC)c(OC)c3c[n+]1CC2`
## Output 1.8 ± 0.2 °C

###

System: Fc-kit1T (DNA, G4) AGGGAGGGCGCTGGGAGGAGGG
assay_explanation: microscale thermophoresis
experimental_conditions: 100 mM K+; 10 mM Tris-HCl pH 7.4
List of Kd values.
Answer format: number, then unit.

In the examples that follow, each entry is paired with its recorded Kd.
{"columns": ["structure_smiles_string", "measured_value"],
 "data": [
  ["COc1cc2c(cc1OC)-c1cc3ccc(OC)c(OCC(=O)N[C@@H](Cc4ccccc4)C(=O)N[C@@H](CCCNC(=N)N)C(N)=O)c3c[n+]1CC2", "1.41 ± 0.09 µM"],
  ["COc1cc2c(cc1OC)-c1cc3ccc(OC)c(OCC(=O)N[C@@H](Cc4ccccc4)C(=O)N[C@@H](CCCCN)C(=O)N[C@@H](CCCN=C(N)N)C(N)=O)c3c[n+]1CC2", "6.60 ± 0.472 µM"],
  ["COc1cc2c(cc1OC)-c1cc3ccc(OC)c(OCC(=O)N[C@@H](Cc4ccccc4)C(=O)N[C@@H](Cc4cnc[nH]4)C(=O)N[C@@H](CCCNC(=N)N)C(N)=O)c3c[n+]1CC2", "9.68 ± 0.57 µM"],
  ["COc1cc2c(cc1OC)-c1cc3ccc(OC)c(OCC(=O)N[C@@H](CCCNC(=N)N)C(=O)N[C@@H](CCCNC(=N)N)C(N)=O)c3c[n+]1CC2", "1.47 ± 0.12 µM"],
  ["COc1cc2c(cc1OC)-c1cc3ccc(OC)c(OC)c3c[n+]1CC2", "3.25 ± 0.32 µM"],
  ["COc1cc2c(cc1OC)-c1cc3ccc(OC)c(OCC(=O)N[C@@H](CCCCN)C(=O)N[C@@H](Cc4ccccc4)C(=O)N[C@@H](CCCNC(=N)N)C(N)=O)c3c[n+]1CC2", "8.00 ± 0.89 µM"],
  ["COc1cc2c(cc1OC)-c1cc3ccc(OC)c(OCC(=O)N[C@@H](Cc4ccccc4)C(=O)NCC(=O)N[C@@H](CCCCN)C(N)=O)c3c[n+]1CC2", "11.10 ± 0.51 µM"]
]}

## Input Need Kd of `COc1cc2c(cc1OC)-c1cc3ccc(OC)c(OCC(=O)N[C@@H](CCCCN)C(=O)N[C@@H](CCCNC(=N)N)C(N)=O)c3c[n+]1CC2` , thanks.
## Output 2.65 ± 0.33 µM

###

Measured ΔTm accompanies every entry in the list below.
Tested on: FPu18T (DNA, G4) AGGGTGGGGAGGGTGGGG
assay_explanation: FRET melting
experimental_conditions: 60 mM K+; 0.2 μM DNA, 1.0 μM compound (methods text: 2 μM, 100 mM LiCl); cacodylate pH 7.4
Respond with the bare value in °C.

Some solved cases for reference:
{"columns": ["structure_smiles_string", "system_under_test", "reading_unit", "ΔTm"],
 "data": [
  ["COc1cc2c(cc1OC)-c1cc3ccc(OC)c(OCC(=O)N[C@@H](CCCNC(=N)N)C(=O)N[C@@H](CCCNC(=N)N)C(N)=O)c3c[n+]1CC2", "FPu18T (DNA, G4) AGGGTGGGGAGGGTGGGG", "°C", 19.6],
  ["COc1cc2c(cc1OC)-c1cc3ccc(OC)c(OC)c3c[n+]1CC2", "FPu18T (DNA, G4) AGGGTGGGGAGGGTGGGG", "°C", 11.2],
  ["COc1cc2c(cc1OC)-c1cc3ccc(OC)c(OCC(=O)N[C@@H](Cc4ccccc4)C(=O)NCC(=O)N[C@@H](CCCCN)C(N)=O)c3c[n+]1CC2", "FPu18T (DNA, G4) AGGGTGGGGAGGGTGGGG", "°C", 5.0]
]}

Okay, next one:
## Input Recorded ΔTm of `COc1cc2c(cc1OC)-c1cc3ccc(OC)c(OCC(=O)N[C@@H](Cc4ccccc4)C(=O)N[C@@H](CCCNC(=N)N)C(N)=O)c3c[n+]1CC2` , please.
## Output 23.8
